# Test system: HL-60
# experimentalDetails: Antiproliferative activity against human HL60 cells after 72 hrs
# Format: functional
# conditionDetails: HL-60, 72 h
reportedMetric: GI50 (µM)

Use these answered entries as a reference point.
# compound, systemUnderTest, dataValue
measured = [
    ("C=C(CCCC)C(=O)c1ccc(OC(C)C(=O)OC)c(C)c1C (stereo not drawn)", "HL-60", 5.2),
    ("C=C(CCC)C(=O)c1ccc(OCC(=O)O)c(C)c1C", "HL-60", 19.3),
    ("C=C(CCC)C(=O)c1ccc(OC(C)C(=O)OC)c(C)c1C (stereo not drawn)", "HL-60", 5.6),
    ("C=C(CC)C(=O)c1ccc(OCC(=O)OC)c(Cl)c1Cl", "HL-60", 3.9),
    ("C=C(CCCC)C(=O)c1ccc(OCC(=O)OC)c(C)c1C", "HL-60", 8.6),
]

a: C=C(CC)C(=O)c1ccc(OCC(=O)O)c(Cl)c1Cl
b: C=C(CC)C(=O)c1ccc(OC(C)C(=O)OC)c(C)c1C (stereo not drawn)
Could you check which of a and b has a smaller value for GI50? Give the label of your selection.
b
(b: 4.6 µM, a: 44.2 µM)

a: C=C(CCCC)C(=O)c1ccc(OCC(=O)O)c(C)c1C
b: C=C(CCC)C(=O)c1ccc(OCC(=O)OC)c(C)c1C
c: C=C(C)C(=O)c1ccc(OC(C)C(=O)OC)c(C)c1C (stereo not drawn)
Please produce an ascending ranking of these compounds based on GI50. Please reply with the labels ordered as requested. Many thanks.
c, b, a
(c: 6 µM, b: 8.6 µM, a: 14.4 µM)

----------
# Tested on: HL-60
# experimentalDetails: Antiproliferative activity against human HL60 cells after 72 hrs
# Type: functional
# conditionDetails: HL-60, 72 h
reportedMetric: GI50

# compound, GI50
rows = [
    ("C=C(C)C(=O)c1ccc(OCC(=O)O)cc1C", "> 60 µM"),
]

Need GI50 of C=C(C)C(=O)c1ccc(OC(C)C(=O)O)cc1Br (stereo not drawn) , thanks.
> 60 µM

Need GI50 of C=C(CC)C(=O)c1ccc(OC(C)C(=O)O)cc1Br (stereo not drawn) , thanks.
> 60 µM

Need GI50 of C=C(C)C(=O)c1ccc(OC(C)C(=O)O)cc1C (stereo not drawn) , thanks.
> 60 µM

Need GI50 of C=C(CC)C(=O)c1ccc(OCC(=O)O)cc1Cl , thanks.
> 60 µM

Need GI50 of C=C(CC)C(=O)c1ccc(OC(C)C(=O)O)cc1Cl (stereo not drawn) , thanks.
> 60 µM

Need GI50 of C=C(CCCC)C(=O)c1ccc(OC(C)C(=O)O)c(C)c1C (stereo not drawn) , thanks.
12.1 µM

Need GI50 of C=C(CCC)C(=O)c1ccc(OC(C)C(=O)O)c(C)c1C (stereo not drawn) , thanks.
11.2 µM

Need GI50 of C=C(C)C(=O)c1ccc(OCC(=O)O)cc1Cl , thanks.
> 60 µM

Need GI50 of C=C(CC)C(=O)c1ccc(OC(C)C(=O)O)cc1C (stereo not drawn) , thanks.
> 60 µM

Need GI50 of C=C(C)C(=O)c1ccc(OC(C)C(=O)O)cc1Cl (stereo not drawn) , thanks.
> 60 µM

Need GI50 of C=C(CC)C(=O)c1ccc(OCC(=O)O)cc1Br , thanks.
> 60 µM

Need GI50 of C=C(CC)C(=O)c1ccc(OCC(=O)O)cc1C , thanks.
> 60 µM
